FYI, the data here is from patent US11130769B2.

Biological target: MCL-1 (Homo sapiens (Human), UniProt Q07820)
Sequence (Q07820 whole entry): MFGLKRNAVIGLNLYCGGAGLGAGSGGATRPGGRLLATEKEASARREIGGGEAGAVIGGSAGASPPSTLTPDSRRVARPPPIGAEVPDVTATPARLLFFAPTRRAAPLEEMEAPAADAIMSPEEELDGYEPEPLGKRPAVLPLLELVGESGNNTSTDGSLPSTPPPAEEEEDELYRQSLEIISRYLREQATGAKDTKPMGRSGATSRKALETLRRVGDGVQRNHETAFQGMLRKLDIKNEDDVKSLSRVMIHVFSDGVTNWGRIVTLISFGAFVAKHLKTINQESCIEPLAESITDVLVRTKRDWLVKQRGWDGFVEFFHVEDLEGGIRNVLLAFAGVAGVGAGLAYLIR
Assay: Cell free Mcl-1:Bim affinity assay (fluorescence polarization competition)
Assay type: binding
Details: 15 nM MCL-1, 5 nM FITC-Bim, 1 hour at room temperature; numeric values; read-out: BIM_Ki
Procedure: The binding affinity of each compound was measured via a fluorescence polarization competition assay, in which the compound competes for the same binding site with the ligand, and thus leads to a dose-dependent anisotropy reduction. The tracer ligand utilized was a fluorescein isothiocyanate labelled peptide (FITC-[…]) derived from Bim (GenScript). […]
MEASUREMENT KIND: Ki (nM)

Here are 5 compounds together with their reported answers.
What value of Ki has been recorded for this entry: O=C(NS(=O)(=O)c1ccc2c(c1)N(CC1CCC1)CC1(CCCc3cc(Cl)ccc31)CO2)N1CCCC1 (stereo not drawn) [Example 24]
6

O=C(NS(=O)(=O)c1ccc2c(c1)N(CC1CCC1)C[C@@]1(CCCc3cc(Cl)ccc31)CO2)C1CCCC1 [Example 13] , same question.
22

Record: CC(C)C(=O)NS(=O)(=O)c1ccc2c(c1)N(CC1CCC1)CC1(CCCc3cc(Cl)ccc31)CO2 (stereo not drawn) [Example 6]
35.7

Queued: CC(=O)NS(=O)(=O)c1ccc2c(c1)N(CC1CCC1)CC1(CCCc3cc(Cl)ccc31)CO2 (stereo not drawn) [Example 1]
45.6

And then Cc1ccc(CC(=O)NS(=O)(=O)c2ccc3c(c2)N(CC2CCC2)C[C@@]2(CCCc4cc(Cl)ccc42)CO3)cn1 [Example 17] , what is it?
7.4

A. CC(=O)NS(=O)(=O)c1ccc2c(c1)N(Cc1ccccc1)CC1(CCCc3cc(Cl)ccc31)CO2 (stereo not drawn) [Example 4]
B. O=C(Cc1ccccc1)NS(=O)(=O)c1ccc2c(c1)N(CC1CCC1)CC1(CCCc3cc(Cl)ccc31)CO2 (stereo not drawn) [Example 5]
When A and B are compared, which has the higher number for Ki? Please reply using the label of the selected record.
A
(A: 207 nM, B: 37.3 nM)

a. O=C(NS(=O)(=O)c1ccc2c(c1)N(CC1CCC1)C[C@@]1(CCCc3cc(Cl)ccc31)CO2)OCc1ccccc1 (stereo in doubt) [Example 14]
b. CC(=O)NS(=O)(=O)c1ccc2c(c1)N(CC1CCCCC1)CC1(CCCc3cc(Cl)ccc31)CO2 (stereo not drawn) [Example 3]
c. O=C(Cc1ccncc1)NS(=O)(=O)c1ccc2c(c1)N(CC1CCC1)C[C@@]1(CCCc3cc(Cl)ccc31)CO2 [Example 19]
d. CC(=O)NS(=O)(=O)c1ccc2c(c1)N(CC1C[C@@H](C)O[C@@H](C)C1)CC1(CCCc3cc(Cl)ccc31)CO2 (mixture of isomers) [Example 8]
hey, can you rank those compounds up there by Ki? biggest number first please I'd appreciate it if you listed the labels in the requested order.
d, a, b, c
(d: 424 nM, a: 222 nM, b: 143 nM, c: 9.3 nM)

a. O=C(NS(=O)(=O)c1ccc2c(c1)N(CC1CCC1)CC1(CCCc3cc(Cl)ccc31)CO2)c1ccc(Cl)cc1 (stereo not drawn) [Example 7]
b. O=C(Cc1nccs1)NS(=O)(=O)c1ccc2c(c1)N(CC1CCC1)C[C@@]1(CCCc3cc(Cl)ccc31)CO2 [Example 16]
c. O=C(CCc1ccncc1)NS(=O)(=O)c1ccc2c(c1)N(CC1CCC1)C[C@@]1(CCCc3cc(Cl)ccc31)CO2 (racemic) [Example 20]
d. CC(C)(C)OC(=O)N1CCC[C@H](OC(=O)NS(=O)(=O)c2ccc3c(c2)N(CC2CCC2)CC2(CCCc4cc(Cl)ccc42)CO3)C1 (stereo partly drawn) [Example 23]
Please produce an ascending ranking of these compounds based on Ki. Write the labels, ordered according to the request.
b, c, d, a

1. CC(=O)NS(=O)(=O)c1ccc2c(c1)N(CC1CC1)CC1(CCCc3cc(Cl)ccc31)CO2 (stereo not drawn) [Example 2]
2. O=C1Cc2cccc(c2)SC[C@@H]2CCC2CN2CC3(CCCc4cc(Cl)ccc43)COc3ccc(cc32)S(=O)(=O)N1 (stereo partly drawn) [Example 25]
3. CC(=O)NS(=O)(=O)c1ccc2c(c1)N(CC1CCC1)C[C@@]1(CCCc3cc(Cl)ccc31)CO2 [Example 12]
Order the 3 compounds from highest to lowest Ki. Response field: labels, in requested order.
1, 3, 2
(1: 179 nM, 3: 15.8 nM, 2: 9 nM)
